The origin of these recorded values is PubChem BioAssay AID1159580.

Below: a set of entries, each annotated with reported normalized growth.
- PROCEDURE_TEXT: chemical genetic growth profiling, strain panel (AID 1159580);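 also: tested at 20 µM; growth read once vehicle control cultures reached saturation at 30 °C; 1 = growth at the plate median or of vehicle wells; lower values mean less growth of the strain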
- APPLIED_CONDITIONS: S. cerevisiae deletion strains, growth OD, locus YNL307C, strain MCK1, active compounds read low
In all, about 5,500 compounds went through this assay and about 2,000 (36%) were called active. About 18% were inconclusive and are not listed. This is one part of the list.
// no unit string in output, number only

Answered cases to consult:
                                   compound  reported_endpoint   val
0  CC(=O)C1CC[C@H]2C3CC[C@H]4C[C@H](O)CC[C@]4(C)C3CC[C@]12C (stereo partly specified)  normalized growth  1.01
1                         O=c1oc2ccccc2cc1O  normalized growth     1
2  COc1ccc2c(c1)OCC(Cc1ccc(OC)c(OC(C)=O)c1)C2=O (stereo unspecified)  normalized growth     1
3  CN=C(N)NCCCC(N)C(=O)O (stereo unspecified)  normalized growth  1.02
4  COC1=CC(=O)OC(CCc2ccc(OC)c(OC)c2)C1 (stereo unspecified)  normalized growth  1.01

Now look at this one.
The measured normalized growth associated with CC(=O)C1CCC2C3CCC4C[C@H](O)CCC4(C)C3C[C@H](O)C12C (stereo partly specified) reads 0.994

---

normalized growth values, listed per item
- PROCEDURE_TEXT: chemical genetic growth profiling, strain panel (AID 1159580);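 also: tested at 20 µM; growth read once vehicle control cultures reached saturation at 30 °C; 1 = growth at the plate median or of vehicle wells; lower values mean less growth of the strain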
- APPLIED_CONDITIONS: S. cerevisiae deletion strains, growth OD, locus YEL061C, strain CIN8, active compounds read low
Hit rate of the full screen: of about 5,500 compounds, about 2,000 (36%) were called active. About 18% were inconclusive and are not listed. Some of the results follow.
The response must contain the number and no unit.

Please review the entries below; each comes with its answer.
>>> print(df.to_string())
                                   molecule    val
0  CCC(=O)OC1[C@@H]2CC3=C4CC(=O)O[C@@H](c5ccoc5)[C@]4(C)CCC3[C@@](C)(C2=O)[C@@H](CC(=O)OC)C1(C)C (stereo not given in full)  0.992
1  O=[N+]([O-])c1ccc(C(O)C(O)CO)cc1 (stereo not given)      1
2  CC12CCC3C(CC[C@H]4CC5(CCC34C)OCCO5)C1CCC2O (stereo not given in full)  0.999
3  COc1ccc(-c2nc(-c3ccc(-c4ccccc4)cc3)cs2)cc1  0.979

Let's switch to this molecule now.
The reported normalized growth of the molecule c1ccc(-c2ccc(-c3csc(-c4cccnc4)n3)cc2)cc1 was 1.01

---

Each entry below carries its recorded normalized growth.
- PROCEDURE_TEXT: chemical genetic growth profiling, strain panel (AID 1159580);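 also: tested at 20 µM; growth read once vehicle control cultures reached saturation at 30 °C; 1 = growth at the plate median or of vehicle wells; lower values mean less growth of the strain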
- APPLIED_CONDITIONS: S. cerevisiae deletion strains, growth OD, locus YJR075W, strain HOC1, active compounds read low
The campaign covered roughly 5,500 compounds. About 2,000 (36%) were called active. Another 18% or so got no clear call; they are omitted. The list shows a part of the results.
// no unit, no text: just the number

                                   compound  reported_endpoint   val
0  NC(C(=O)O)C(O)C(=O)O (centres undefined)  normalized growth  1.01
1            CCOC(=O)c1cnn(-c2ccc(F)cc2)c1N  normalized growth   0.9
2  O=S1(=O)N(CCN2CC=C(c3c[nH]c4cc(F)ccc34)CC2)c2cccc3c2N1CCC3  normalized growth     1

Please fill in: normalized growth reported for c1ccc(-c2ccc(-c3csc(-c4cccnc4)n3)cc2)cc1 = 1.03
